- tested.system: HLA-DR DRB1*1501 (human)
- method: radiolabeled-peptide inhibition, purified HLA-DR
parameter: pIC50
Schema: pIC50 number; meaning minus log10 of the concentration expressed in molar units.

A selection of reference data follows.
SDVWSYGVTVWELMT [9019.0089] :: 5.73
CYGLGMEHLREVRAV [9019.0044] :: 6.16
GMSYLEDVRLVHRDL [9019.0002] :: 6.25

In the following, a different binder is considered.
The recorded pIC50 for ILLVVVLGVVFGILI [9019.0068] is 5.15

Where these numbers come from: patent US20100310640A1
